# measured.target: T1, GABAA receptor-associated protein (GABARAP) (mouse, UniProt Q9DCD6 1-117)
# T1 construct: GABARAP, mouse, UniProt Q9DCD6; also called GABARAP WT; source: E. coli BL21 (DE3), purified (nickel-NTA, size exclusion)
# T1 sequence (Q9DCD6 whole entry): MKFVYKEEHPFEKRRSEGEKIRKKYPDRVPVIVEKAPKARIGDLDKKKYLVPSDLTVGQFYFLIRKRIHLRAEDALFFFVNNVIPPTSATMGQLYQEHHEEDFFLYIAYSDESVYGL
# test.protocol: ITC; VP-ITC at 25 °C; 50 mM Tris pH 7.8, 100 mM NaCl, 1 mM EDTA, 1 mM DTT; γ2 subunit protein or peptide (100-200 μM) injected into GABARAP, GABARAPL1 or AP2 (10-20 μM) in the cell; one-site binding model
# cond: both partners purified
measured.metric: Kd

• ERDEEEGYECLDGKDCAS (peptide, UniProt P22723-2 398-415, looked up, source: E. coli BL21 (DE3), purified (nickel-NTA, size exclusion)) [GABAA receptor γ2-GIM Y403E] = 1000 nM
